measured_target: human thrombin (Homo sapiens, UniProt P00734)
Construct: human thrombin; purchased Sigma Chemical Co., St. Louis, U.S.A
assay_overview: Determination of Ki, inhibition of reaction of thrombin with substrate S-2238
Format: biochemical
protocol_conditions: Table 2; Gph-derivatives
outcome_measure: Ki (µM)

1) Cc1ccc(S(=O)(=O)N[C@@H](Cc2ccc(NC(=N)N)cc2)C(=O)N2CCCCC2)cc1 [v, Tos--Gph--piperidide]	0.8

I: N=C(N)Nc1ccc(C[C@H](NS(=O)(=O)c2ccc3ccccc3c2)C(=O)N2CCOCC2)cc1 [iv, β-Naphthalenesulfonyl--Gph--morpholide]
II: CC1CCN(C(=O)[C@H](Cc2ccc(NC(=N)N)cc2)NS(=O)(=O)c2cccc3ccccc23)CC1 [iii]
Between the two listed entries I and II , which has its Ki at the higher number? Answer = label.
II
